Source: the domain aggregation screens of Martell et al. (2025)

Consider the following sequences and their measured soluble fraction (log2) readings.
protocol: soluble fraction after stress (log2 fold change); higher = more stays soluble; pooled small domains, quantitative proteomics
experimental-conditions: stress: 50 degC
Give the value as a plain number.

Below are worked cases with known answers.
>>> quantitative_readout("HMTQLPEVPVERGMVLEEVQSGWVGAVTRVEKSGGMHVVALEDRRGKSRSFRLGFGFLLEGQPIRLMPPAP")
-1.42
>>> quantitative_readout("HMSFNISPTKKLILELIMNGTAAVEAIAVKAGISKGMAYNHLRELRSMGYITDEGGYKITDSGRLAV")
-0.414

Task item: Fill in the blank: the reported soluble fraction (log2) of HMKTLGMDKGVNIALNDAGLRAEDVSNLSAHYDTEDGVPVYEIKFTAGGFSYEYQIKASDGTIIEADRDAA is ____.
Reply: -0.108

Task item: Which soluble fraction (log2) value is on record for HMGTAVKAPMPGTILKVNVTAGQSVKAGDIMFILEAMKMENEIVAPSDGTVSQVVAAKGSSVATDDVLAYL ?
Reply: -0.0338
